System: CCRF-CEM leukemia
Experiment: NCI-60 one-dose screen, 48 h (100 = growth as untreated, 0 = no growth, -100 = all killed)
Details: 10 µM unless noted
Method: Growth inhibition of the CCRF-CEM human tumor cell line is measured as a screen for anti-cancer activity. Cells are grown in 96 well plates and exposed to the test compound for 48 hours. Compounds are tested at a single concentration, which is 10^-5 M for most compounds. The reported endpoint is percent growth (GI% or GIPRCNT), where numbers from 0 - 100% represent growth inhibition, and numbers from -100% - 0 represent cell death. For example, a value of 40 represents 60% growth inhibition. […]
About 83,000 compounds went through this panel and 20% of them were active in at least one assay; those are over-represented in the sample as a whole. Active and inactive are the calls of the source. Rule for the calls: active = growth percent below 10; inactive = the rest.
Quick reference for growth among some compounds

INSERT INTO results (compound, reported_result) VALUES
  ('COC(=O)CC12CC(NC(=O)c3csc([C@@H](C[C@H](C(C)C)N(C)C(=O)[C@@H](NC(=O)[C@H]4CCCCN4C)C(C)C)OC(C)=O)n3)(C1)C2', '13.6% (inactive)'),
  ('CC(=O)OC1C(OC/C2=C/C3[C@@H](C(C)C)CC=C(C)[C@@H]3CC(OC(=O)/C=C/c3cn(C)cn3)[C@]3(C)C=C[C@@]2(O)O3)OCC(O)C1O (stereo not given in full)', '22.5% (inactive)'),
  ('CCOc1ccccc1C(=O)OCC(Cl)(Cl)Cl', '104% (inactive)'),
  ('O=C(CC1(O)C(=O)Nc2ccc(Br)cc21)c1ccc(C(=O)NCC2CCC3(CC2)OOC2(CCCCC2)OO3)cc1 (stereo not given)', '-34.4% (active)'),
  ('O=[N+]([O-])c1c(Br)sc(Br)c1[N+](=O)[O-]', '-18.9% (active)');

Ask: Jot down growth (CCRF-CEM leukemia) of CCOC(=O)CCC(NC(=O)C(Cc1ccc(N(CCCl)CCCl)cc1)NC=O)C(=O)OCC (stereo not given) .
Result: 17.6% (inactive)

Ask: Supply growth measured with CCRF-CEM leukemia for CC(=O)Nc1ccc(NC(=O)c2ccc([As](O)O)cc2)cc1 .
Result: 47.7% (inactive)

Ask: Name the value of growth reported for CC(=O)O[C@H]1C(=O)[C@@]2(C)[C@H]([C@H](OC(=O)c3ccccc3)[C@]3(O)C[C@H](OC(=O)[C@H](OC(=O)OC[C@@H]4COC(C)(C)O4)[C@@H](NC(=O)c4ccccc4)c4ccccc4)C(C)=C1C3(C)C)[C@]1(OC(C)=O)CO[C@@H]1C[C@@H]2O when tested on CCRF-CEM leukemia.
Result: 17.8% (inactive)

Ask: State the measured growth (CCRF-CEM leukemia) of O=C1NC(=O)C(=Cc2cn(CCCCCCn3c4ccccc4c(=O)c4ccccc43)c3ccccc23)C(=O)N1
Result: 80.6% (inactive)

Ask: Recall the reported growth of COc1ccc(S(=O)(=O)N(Cc2ccc3c(c2)C=CC(C)(C)O3)c2ccccc2)cc1OC when tested on CCRF-CEM leukemia.
Result: 72% (inactive)

Sourced from PubChem BioAssay (NCI)
